# Tested on: Rattus norvegicus
# ASSAY PROTOCOL: Tested in vivo for its effect on changing plasma cholesterol level in rats at a dose of 30 mg/kg
# Format: functional
Parameter Delta TC: see the listing below.
Give a bare numeral; the unit % is implied.

ITEM SMILES | TESTED ON | METRIC | VAL
CCCCCCCCCCCCCCCCCC(=O)Nc1c(OC)cc(OC)cc1OC | Rattus norvegicus | Delta TC | -11

Quick check: Delta TC of `CCCCCCCCCCCCCCCCCCn1nnc(CS(=O)(=O)Nc2c(C(C)C)cccc2C(C)C)n1` ?
-31

Quick check: Delta TC of `CCCCCCCCCCCCn1nnnc1CS(=O)(=O)Nc1c(OC)cc(OC)cc1OC` ?
-30

Please look up its Delta TC: `CCCCCCCCn1nnc(CS(=O)(=O)Nc2c(C(C)C)cccc2C(C)C)n1`
-14

What does the record list as Delta TC for `CCCCCCCCCCCCCCn1nnc(CS(=O)(=O)Nc2c(C(C)C)cccc2C(C)C)n1` ?
-42

###

# Test system: Rattus norvegicus
# ASSAY PROTOCOL: Tested in vivo for its effect on changing plasma cholesterol level in rats at a dose of 30 mg/kg
# Type: functional
METRIC: Delta TC (%)
Unit % implied. Number only.

Please review the following examples before continuing.
COMPOUND | Delta TC, %
CCCCCCCCCCCCn1nnc(C(C)S(=O)(=O)Nc2c(C(C)C)cccc2C(C)C)n1 (stereo not drawn) | -67
CCCCCCCCCCCCn1nnnc1CS(=O)(=O)Nc1c(C(C)C)cccc1C(C)C | -41
CCCCCCCCCCCCn1nnc(C(C)(C)S(=O)(=O)Nc2c(C(C)C)cccc2C(C)C)n1 | -53
CCCCCCCCCCCCn1nnc(CS(=O)(=O)Nc2c(C(C)C)cccc2C(C)C)n1 | -67

I would be grateful if you could share the reported Delta TC for CCCCCCCCCCCCn1nnc(C(Cc2ccccc2)S(=O)(=O)Nc2c(C(C)C)cccc2C(C)C)n1 (stereo not drawn) .
-27

Query (compound): `CCCCCCCCCCCCn1nnc(CC(=O)Nc2c(C(C)C)cccc2C(C)C)n1` ; field requested: Delta TC
-64

Report Delta TC for `CCCCCCCCCCCCCCCCn1nnc(CS(=O)(=O)Nc2c(C(C)C)cccc2C(C)C)n1` please.
-20

Give its Delta TC value. Item: `CCCCCCCCCCCCn1nnc(CS(=O)(=O)Nc2c(OC)cc(OC)cc2OC)n1`
-60

From: ChEMBL document CHEMBL1128125
